Target: D(1A) dopamine receptor (Homo sapiens)
Sequence (P21728 whole entry): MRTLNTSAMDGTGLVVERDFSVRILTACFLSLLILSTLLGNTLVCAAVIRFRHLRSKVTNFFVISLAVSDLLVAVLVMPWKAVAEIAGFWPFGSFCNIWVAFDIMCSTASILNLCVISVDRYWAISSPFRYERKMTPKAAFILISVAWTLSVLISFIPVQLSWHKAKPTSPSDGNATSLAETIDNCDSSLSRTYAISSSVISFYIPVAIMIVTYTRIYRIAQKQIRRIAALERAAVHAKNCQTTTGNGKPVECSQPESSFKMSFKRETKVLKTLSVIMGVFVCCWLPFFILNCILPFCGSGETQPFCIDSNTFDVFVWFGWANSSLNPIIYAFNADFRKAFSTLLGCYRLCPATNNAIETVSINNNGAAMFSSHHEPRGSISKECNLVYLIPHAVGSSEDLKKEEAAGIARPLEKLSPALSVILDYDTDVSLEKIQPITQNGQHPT
Test: Displacement of [3H]SCH-23390 from human dopamine D1 receptor expressed in HEK293 cells
pKi: −log10 of the molar value.
Catalogue of pKi values

structure_smiles_string: CN1CCc2cc(N)cc3c2[C@H]1Cc1cccc(N)c1-3
study_target: D(1A) dopamine receptor (Homo sapiens)
pKi: 5.53
--
structure_smiles_string: CCCCC(=O)Oc1cccc2c1-c1cc(OC)cc3c1[C@@H](C2)N(C)CC3
study_target: D(1A) dopamine receptor (Homo sapiens)
pKi: 6.94
--
structure_smiles_string: COc1cc2c3c(c1)-c1c(N)cccc1C[C@H]3N(C)CC2
study_target: D(1A) dopamine receptor (Homo sapiens)
pKi: 7.11
--
structure_smiles_string: CN1CCc2c3c(cc4nc(N)sc24)-c2c(ccc(O)c2O)C[C@H]31
study_target: D(1A) dopamine receptor (Homo sapiens)
pKi: 5.60
